EXPERIMENT SUMMARY: Oral bioavailability of hydrocodone conjugates in rats, LC/MS/MS
TEST CONTEXT: oral bioavailability
Where a SMILES comes first, the peptide text is derived from it. The star is where a group is joined. X1 = COc1ccc2c3c1O[C@H]1C(O*)=CC[C@H]4[C@@H](C2)N(C)CC[C@]314
For each entry below, report its Percent Decrease 1 mg/kg vs. 5 mg/kg AUC value.
Numbers only, in %.

Recorded Percent Decrease 1 mg/kg vs. 5 mg/kg AUC, per entry:
MOLECULE	Percent Decrease 1 mg/kg vs. 5 mg/kg AUC (%)
CC[C@H](C)[C@H](NC(=O)[C@H](Cc1ccc(O)cc1)NC(=O)[C@@H](N)Cc1ccc(O)cc1)C(=O)OC1=CC[C@H]2[C@H]3Cc4ccc(OC)c5c4[C@@]2(CCN3C)[C@H]1O5 [YYI-HC, Tyr-Tyr-Ile-Hydrocodone]	41
CC[C@H](C)[C@H](NC(=O)[C@H](Cc1ccccc1)NC(=O)[C@H](Cc1ccccc1)NC(=O)[C@H](Cc1ccc(O)cc1)NC(=O)[C@@H](N)Cc1ccc(O)cc1)C(=O)OC1=CC[C@H]2[C@H]3Cc4ccc(OC)c5c4[C@@]2(CCN3C)[C@H]1O5 [YYFFI[SEQ ID NO: 8]-HC] (H-YYFFI-X1)	15
CC[C@H](C)[C@H](NC(=O)[C@H](CC(=O)O)NC(=O)[C@@H](N)CC(=O)O)C(=O)OC1=CC[C@H]2[C@H]3Cc4ccc(OC)c5c4[C@@]2(CCN3C)[C@H]1O5 [DDI-HC, Asp-Asp-Ile-Hydrocodone]	9

Here is the next item to consider.
stdin: Give its Percent Decrease 1 mg/kg vs. 5 mg/kg AUC value. Item: CC[C@H](C)[C@H](NC(=O)[C@H](Cc1ccccc1)NC(=O)[C@H](Cc1ccccc1)NC(=O)[C@H](CCC(=O)O)NC(=O)[C@@H](N)CCC(=O)O)C(=O)OC1=CC[C@H]2[C@H]3Cc4ccc(OC)c5c4[C@@]2(CCN3C)[C@H]1O5 [EEFFI[SEQ ID NO: 5]-HC] (H-EEFFI-X1)
stdout: 70

====

EXPERIMENT SUMMARY: Crossover pharmacokinetics in dogs, oral vs 30-min intravenous infusion, LC-MS/MS
Format: in vivo, male beagle dogs
TEST CONTEXT: male, beagle, dog, plasma, iv, 1 mg/kg, male beagle dog; IV; 1 mg/kg d-amphetamine base; mean; read-out: MRT of L-lysine-d-amphetamine
TEST READOUT: MRT (min)
Answers are plain numbers, in min.

stdin: Give its MRT value. Item: CC(Cc1ccccc1)NC(=O)C(N)CCCCN (stereo not shown)
stdout: 19.8

====

EXPERIMENT SUMMARY: Oral bioavailability of hydrocodone conjugates in rats, LC/MS/MS
TEST CONTEXT: oral, 1 mg/kg dose, 3 Hours
Where a SMILES comes first, the peptide text is derived from it. The star is where a group is joined. X1 = COc1ccc2c3c1O[C@H]1C(O*)=CC[C@H]4[C@@H](C2)N(C)CC[C@]314
TEST READOUT: hydrocodone plus hydromorphone concentration (ng/mL)
Give bare numbers, in ng/mL.

Recorded hydrocodone plus hydromorphone concentration, per entry:
MOLECULE	READOUT UNITS	QUANTITATIVE READOUT
CC[C@H](C)[C@H](NC(=O)[C@H](Cc1ccccc1)NC(=O)[C@H](Cc1ccccc1)NC(=O)[C@H](Cc1ccc(O)cc1)NC(=O)[C@@H](N)Cc1ccc(O)cc1)C(=O)OC1=CC[C@H]2[C@H]3Cc4ccc(OC)c5c4[C@@]2(CCN3C)[C@H]1O5 [YYFFI[SEQ ID NO: 8]-HC] (H-YYFFI-X1)	ng/mL	1.4
COc1ccc2c3c1O[C@H]1C(OC(=O)[C@H](Cc4ccccc4)NC(=O)[C@H](Cc4ccccc4)NC(=O)[C@H](Cc4ccccc4)NC(=O)[C@H](CCC(=O)O)NC(=O)[C@@H](N)CCC(=O)O)=CC[C@H]4[C@@H](C2)N(C)CC[C@]314 [EEFFF[SEQ ID NO: 3]-HC] (H-EEFFF-X1)	ng/mL	1.2

Here is the next item to consider.
stdin: Give its hydrocodone plus hydromorphone concentration value. Item: CC[C@H](C)[C@H](NC(=O)[C@H](Cc1ccccc1)NC(=O)[C@H](Cc1ccccc1)NC(=O)[C@H](CCC(=O)O)NC(=O)[C@@H](N)CCC(=O)O)C(=O)OC1=CC[C@H]2[C@H]3Cc4ccc(OC)c5c4[C@@]2(CCN3C)[C@H]1O5 [EEFFI[SEQ ID NO: 5]-HC] (H-EEFFI-X1)
stdout: 4.2
